Task for the reader: assign each of the following compounds its reported pIC50.
Biological target: RAW cell i-NOS (Mus musculus, UniProt P29477)
Construct: grown overnight (17 h) in the presence of LPS to induce NOS; endogenous in cells
Test: Raw Cell Nitrite Assay
Details: RAW 264.7 cells, LPS induced, L-arginine 30 μM
Structures can show the parent of a compound that is named as a salt.
Give bare numbers, as −log10 of the molar value.

> print(dat)
                                   compound  observed.value
1  CC(=N)NCCCC[C@H](N)C(O)CO (single isomer, unassigned) [Example 3B, dihydrochloride]            4.10
2                CC(=N)NCCCC[C@H](N)CC(=O)O            3.52

API: the following record is the query input.
Fill in pIC50 for record CC(=N)NCCCC[C@H](N)C(C)(O)CO (single isomer, unassigned) [Example 15A, hydrochloride dihydrate]
4.24

----------
Biological target: UniProt:P29475
Structures can show the parent of a compound that is named as a salt.
criterion met if IC50 is below 200 µM. criterion not met if not; exact matches included in criterion not met.

Below, 4 compounds whose answers are already recorded.
> print(dat)
                                   compound  qualitative.label
1  CC(=N)NCCCC[C@H](N)C(C)(O)CO (single isomer, unassigned) [Example 15A, hydrochloride dihydrate]      criterion met
2  CC(=N)NCCCC[C@H](N)C(O)CO (single isomer, unassigned) [Example 3B, dihydrochloride]      criterion met
3  CC(=N)NCCCC[C@H](N)C(O)C(C)O (single isomer, unassigned) [Example 16B, dihydrochloride hydrate]  criterion not met
4  CC(=N)NCCCC[C@H](N)C(C)(O)CO (single isomer, unassigned) [Example 15B, hydrochloride dihydrate]  criterion not met

Next, consider the following compound.
API: query returns whether the compound falls strictly under 200 µM in IC50. Query: CC(=N)NCCCC[C@H](N)CC(=O)O [Example 1]
criterion not met

----------
Test system: iNOS
Test: % inhibition of iNOS at 100 μM
Type: biochemical
Experimental: Citrulline Assay for Nitric Oxide Synthase Nitric oxide synthase activity was measured by monitoring the conversion of L-[2,3-3H]-arginine to L-[2,3-3H]-citrulline (1,2). Human inducible NOS (hiNOS), human endothelial constitutive NOS (hecNOS) and human neuronal constitutive NOS (hncNOS) were each cloned from RNA extracted from human tissue. […] The [3H]-citrulline was separated by chromatography on Dowex 50W X-8 cation exchange resin and radioactivity quantified with a liquid scintillation counter.
Structures can show the parent of a compound that is named as a salt.
Please respond with reported % inhibiton iNOS at 100 μM for every item in the list.
Give the number first and the unit second.

Examples with their reported % inhibiton iNOS at 100 μM follow.
> print(dat)
                                   molecule            measurement.type  observed.value
1  CC(=N)NCCCC[C@H](N)C(C)O (some centres unmarked) [Example 40B, dihydrochloride dihydrate]  % inhibiton iNOS at 100 μM           14.5%
2  CC(=N)Nc1ccc(C(N)CC(=O)O)cc1.Cl.Cl.O (centres unmarked)  % inhibiton iNOS at 100 μM            3.4%
3                     CC(=N)NCCCC[C@H](N)CO  % inhibiton iNOS at 100 μM           40.6%
4  CC(=N)NCCCC[C@H](N)C(C)O (single isomer, unassigned) [Example 40A, dihydrochloride dihydrate]  % inhibiton iNOS at 100 μM           32.6%

Next molecule, please.
Provide only the value of recorded % inhibiton iNOS at 100 μM for CCC(N)CCCCNC(C)=N (centres unmarked)
27%
